Tested on: KM12 colon
Assay: NCI tumour cell line growth inhibition, 48 h
# Lookup of reported TGI keyed by entry
EXPERIMENTAL_READOUT: TGI

[[record]]
molecule = "CCn1c2c(c3ccccc31)[C@@H](c1ccc(Cl)cc1)CC1C(=O)N(c3ccccc3)C(=O)C21 (stereo not given in full)"
recorded_value = "> 100 µM"

[[record]]
molecule = "C#C[C@@]1(O)CCCC2=CC3(CC[C@]21C)SCCS3"
recorded_value = "> 100 µM"

[[record]]
molecule = "Cc1nc2ccccn2c1NC(=O)NNC(=S)Nc1ccc(F)cc1"
recorded_value = "> 100 µM"

[[record]]
molecule = "N/C(=N\\Nc1ccc(Cl)cc1)c1cnccn1"
recorded_value = "> 100 µM"

[[record]]
molecule = "CCCCCCCC/C=C1\\CCC(CN2CCOCC2)C1=O (stereo not given)"
recorded_value = "12.4 µM"

[[record]]
molecule = "CN(O)C(=O)CCCC(=O)NCC(C)(C)CNC(=O)CCCC(=O)N(C)O"
recorded_value = "> 100 µM"

[[record]]
molecule = "COC1=C(Cl)C(=O)c2c(O)ccc(O)c2C1=O"
recorded_value = "23.5 µM"

[[record]]
molecule = "Nn1c(=O)[nH]c2ncn(Cc3ccccc3)c2c1=O"
recorded_value = "> 100 µM"

[[record]]
molecule = "C[C@H]1CNC(=O)c2cnn3ccc(nc23)N[C@H](C)c2cc(F)ccc2O1"
recorded_value = "> 100 µM"

[[record]]
molecule = "COC1=CC(=O)C=C(OC)C1=O"
recorded_value = "39.3 µM"


###

Tested on: DMS 273 small cell lung
Experiment: NCI tumour cell line growth inhibition, 48 h
EXPERIMENTAL_READOUT: TGI

[[record]]
compound = "Cc1ccc(S(=O)(=O)c2ccc(C)cc2[N+](=O)[O-])cc1"
experimental_readout = "TGI"
recorded_value = "> 100 µM"

[[record]]
compound = "CCOC(=O)C12C(C(=O)OC)=C(C)N(NC(=O)Nc3ccccc3)C1(N)N(NC(=O)Nc1ccccc1)C(C)=C2C(=O)OC (stereo unspecified)"
experimental_readout = "TGI"
recorded_value = "> 72.2 µM"

[[record]]
compound = "COC(=O)C1CC(OC(C)=O)C=C2C(=O)CCC21 (stereo unspecified)"
experimental_readout = "TGI"
recorded_value = "43.8 µM"

[[record]]
compound = "CC(C)c1cccc(O)c(=O)c1"
experimental_readout = "TGI"
recorded_value = "> 48.4 µM"

[[record]]
compound = "CCOc1ccc(C(C)c2cc3c(cc2OC)OCO3)cc1 (stereo unspecified)"
experimental_readout = "TGI"
recorded_value = "11.7 µM"

[[record]]
compound = "COC1CCC(OC)C(C2(C3CC(OC)CCC3OC)OC(=O)c3ccccc32)C1 (stereo unspecified)"
experimental_readout = "TGI"
recorded_value = "> 100 µM"

[[record]]
compound = "COC(=O)C(Cc1ccc(N(C)C)cc1)(NC(=O)c1ccccc1)P(=O)(OC)OC (stereo unspecified)"
experimental_readout = "TGI"
recorded_value = "> 100 µM"

[[record]]
compound = "COc1cc(C(C)c2cc3c(cc2OCCNC(=O)COc2cc4c(cc2C(C)c2cc(OC)c(OC)c(OC)c2)OCO4)OCO3)cc(OC)c1OC (stereo unspecified)"
experimental_readout = "TGI"
recorded_value = "> 100 µM"

[[record]]
compound = "CCCN(CCC)C(=O)c1nc(N)nc(-c2ccc(OC)cc2)c1-c1ccc(OC)cc1"
experimental_readout = "TGI"
recorded_value = "> 100 µM"

[[record]]
compound = "COc1cc2c(cc1Oc1c(Oc3c(O)c(OC)cc4c3C(CC(C)C)N(C)CC4)c(OC)cc3c1C(CC(C)C)N(C)CC3)C(CC(C)C)N(C)CC2 (stereo unspecified)"
experimental_readout = "TGI"
recorded_value = "4.21 µM"

[[record]]
compound = "CCCCc1c2cnccc2c(CCCC)c2c1[nH]c1ccccc12"
experimental_readout = "TGI"
recorded_value = "27.9 µM"

[[record]]
compound = "Cc1c(N)nc(C(CC(N)=O)NCC(N)C(N)=O)nc1C(=O)NC(C(=O)NC(C)C(O)C(C)C(=O)NC(C(=O)NCCc1nc(-c2nc(C(=O)NCCCNC(C)c3ccccc3)cs2)cs1)C(C)O)C(OC1OC(CO)C(O)C(O)C1OC1OC(CO)C(O)C(OC(N)=O)C1O)c1cnc[nH]1 (stereo unspecified)"
experimental_readout = "TGI"
recorded_value = "4.95 µM"

[[record]]
compound = "CC1=NOC(=O)/C1=C/c1ccc([N+](=O)[O-])cc1"
experimental_readout = "TGI"
recorded_value = "> 100 µM"

[[record]]
compound = "CNC(=O)SCC(NC(=O)CCC(N)C(=O)O)C(=O)NCC(=O)O (stereo unspecified)"
experimental_readout = "TGI"
recorded_value = "> 100 µM"

[[record]]
compound = "C1CN(P2(N3CC3)=NP(N3CC3)(N3CC3)=NP(N3CC3)(N3CC3)=N2)CCO1 (stereo unspecified)"
experimental_readout = "TGI"
recorded_value = "> 100 µM"

[[record]]
compound = "Cc1ccc(S(=O)(=O)OC(COC(=O)c2ccccc2)C(OS(=O)(=O)c2ccc(C)cc2)C(OS(=O)(=O)c2ccc(C)cc2)C(COC(=O)c2ccccc2)OS(=O)(=O)c2ccc(C)cc2)cc1 (stereo unspecified)"
experimental_readout = "TGI"
recorded_value = "> 100 µM"

[[record]]
compound = "C/C(CC(=O)Nc1ccccc1C)=N/NS(=O)(=O)c1ccc(C)cc1"
experimental_readout = "TGI"
recorded_value = "> 100 µM"

[[record]]
compound = "CCn1c2c(c3ccccc31)[C@@H](c1ccc(Cl)cc1)CC1C(=O)N(c3ccccc3)C(=O)C21 (stereo partly specified)"
experimental_readout = "TGI"
recorded_value = "> 100 µM"

[[record]]
compound = "CC1CC(C)C2OC2(C)C[C@H](C)C(=O)NC(C)C(=O)N(C)[C@H](Cc2c(Br)[nH]c3ccccc23)C(=O)N[C@@H](c2ccc(O)cc2)CC(=O)O1 (stereo partly specified)"
experimental_readout = "TGI"
recorded_value = "83.1 µM"

[[record]]
compound = "COC(=O)/C(C#N)=C(\\N)C(Cl)(Cl)Cl"
experimental_readout = "TGI"
recorded_value = "12.4 µM"

[[record]]
compound = "N#CC(C#N)=Cc1ccc(CP(=O)(O)O)cc1"
experimental_readout = "TGI"
recorded_value = "> 100 µM"

